Tested on: Pseudomonas aeruginosa
PROCEDURE_TEXT: Antibacterial activity against VIM-2 producing Pseudomonas aeruginosa clone B2 isolate VA-06X-28 by Etest method
Assay type: functional
MIC by entry:

# COMPOUND, TARGET_OR_SYSTEM, MIC
rows = [
    ("NCC[C@H](O)C(=O)N[C@@H]1C[C@H](N)[C@@H](O[C@H]2O[C@H](CN)[C@@H](O)[C@H](O)[C@H]2O)[C@H](O)[C@H]1O[C@H]1O[C@H](CO)[C@@H](O)[C@H](N)[C@H]1O", "Pseudomonas aeruginosa", "> 128 µg/mL"),
    ("C[C@@H](O)[C@H]1C(=O)N2C(C(=O)O)=C(S[C@@H]3CN[C@H](C(=O)N(C)C)C3)[C@H](C)[C@H]12", "Pseudomonas aeruginosa", "> 32 µg/mL"),
    ("CC(C)(O/N=C(\\C(=O)N[C@@H]1C(=O)N2C(C(=O)[O-])=C(C[n+]3ccccc3)CS[C@H]12)c1csc(N)n1)C(=O)O", "Pseudomonas aeruginosa", "64 µg/mL"),
    ("C[C@@H](O)[C@H]1C(=O)N2C(C(=O)O)=C(SCCNC=N)C[C@H]12 [IMIPENEM ANHYDROUS]", "Pseudomonas aeruginosa", "> 32 µg/mL"),
    ("C[C@H]1COc2c(N3CCN(C)CC3)c(F)cc3c(=O)c(C(=O)O)cn1c23.C[C@H]1COc2c(N3CCN(C)CC3)c(F)cc3c(=O)c(C(=O)O)cn1c23.O", "Pseudomonas aeruginosa", "> 32 µg/mL"),
]

Could you now look at the following compound, please?
stdin: Enter reported MIC observed with Pseudomonas aeruginosa for `CCN1CCN(C(=O)N[C@@H](C(=O)N[C@@H]2C(=O)N3[C@@H]2SC(C)(C)[C@@H]3C(=O)O)c2ccccc2)C(=O)C1=O`
stdout: 64 µg/mL

====

MIC by entry:
Tested on: Pseudomonas aeruginosa
PROCEDURE_TEXT: Antibacterial activity against IMP-13 producing Pseudomonas aeruginosa clone C1 isolate AV-13X-28 by Etest method
Format: functional

Example entries and their recorded answers appear below.
# COMPOUND, TARGET_OR_SYSTEM, TEST_READOUT, DATA_VALUE
data = [
    ("C[C@H]1COc2c(N3CCN(C)CC3)c(F)cc3c(=O)c(C(=O)O)cn1c23.C[C@H]1COc2c(N3CCN(C)CC3)c(F)cc3c(=O)c(C(=O)O)cn1c23.O [LEVOFLOXACIN]", "Pseudomonas aeruginosa", "MIC", "> 32 µg/mL"),
    ("C[C@@H](O)[C@H]1C(=O)N2C(C(=O)O)=C(S[C@@H]3CN[C@H](C(=O)N(C)C)C3)[C@H](C)[C@H]12 [MEROPENEM]", "Pseudomonas aeruginosa", "MIC", "8 µg/mL"),
]

Could you now look at the following compound, please?
stdin: Can you share its MIC? I mean this compound: C[C@@H](O)[C@H]1C(=O)N2C(C(=O)O)=C(SCCNC=N)C[C@H]12 [IMIPENEM ANHYDROUS]
stdout: > 16 µg/mL

====

System: Enterobacter cloacae
PROCEDURE_TEXT: Antibacterial activity against VIM-1 producing Enterobacter cloacae isolate TO-16X-51 by Etest method
Format: functional
TEST_READOUT: MIC

# SMILES_STRUCTURE, MIC
measured = [
    ("C[C@H]1COc2c(N3CCN(C)CC3)c(F)cc3c(=O)c(C(=O)O)cn1c23.C[C@H]1COc2c(N3CCN(C)CC3)c(F)cc3c(=O)c(C(=O)O)cn1c23.O", "> 32 µg/mL"),
    ("CC(C)(O/N=C(\\C(=O)N[C@@H]1C(=O)N2C(C(=O)[O-])=C(C[n+]3ccccc3)CS[C@H]12)c1csc(N)n1)C(=O)O", "> 128 µg/mL"),
]

Could you now look at the following compound, please?
stdin: Can you share its MIC? I mean this compound: `CCN1CCN(C(=O)N[C@@H](C(=O)N[C@@H]2C(=O)N3[C@@H]2SC(C)(C)[C@@H]3C(=O)O)c2ccccc2)C(=O)C1=O`
stdout: > 128 µg/mL
